system: HeLa Kyoto; test: solubility change mitosis vs G1/S (difference of NP-40 vs SDS log2 ratios) (log2 ratio difference); higher = more soluble in mitosis;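 further: synchronized HeLa Kyoto cells (double thymidine block for G1/S, nocodazole release for mitosis), protein amounts in NP-40 versus SDS lysates quantified by mass spectrometry, three biological replicates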
quantityMeasured: solubility change mitosis (log2)

| chainSequence | quantityMeasured | measuredResult |
| --- | --- | --- |
| MGILEKISEIEKEIARTQKNKATEYHLGLLKAKLAKYRAQLLEPSKSASSKGEGFDVMKSGDARVALIGFPSVGKSTFLSLMTSTASEAASYEFTTLTCIPGVIEYKGANIQLLDLPGIIEGAAQGKGRGRQVIAVARTADVIIMMLDATKGEVQRSLLEKELESVGIRLNKHKPNIYFKPKKGGGISFNSTVTLTQCSEKLVQLILHEYKIFNAEVLFREDCSPDEFIDVIVGNRVYMPCLYVYNKIDQISMEEVDRLARKPNSVVISCGMKLNLDYLLEMLWEYLALTCIYTKKRGQRPDFTDAIILRKGASVEHVCHRIHRSLASQFKYALVWGTSTKYSPQRVGLTHTMEHEDVIQIVKK [DRG2] | solubility change mitosis (log2) | -0.113 |
| MAELYVKPGNKERGWNDPPQFSYGLQTQAGGPRRSLLTKRVAAPQDGSPRVPASETSPGPPPMGPPPPSSKAPRSPPVGSGPASGVEPTSFPVESEAVMEDVLRPLEQALEDCRGHTRKQVCDDISRRLALLQEQWAGGKLSIPVKKRMALLVQELSSHRWDAADDIHRSLMVDHVTEVSQWMVGVKRLIAEKRSLFSEEAANEEKSAATAEKNHTIPGFQQAS [SRA1] | solubility change mitosis (log2) | 0.9 |
